# Test system: A549/ATCC NSCLC
# Procedure text: NCI-60 one-dose screen, 48 h
# Measurement context: 10 µM
Compounds without any hit were thinned out: in the full panel of roughly 83,000, 20% have a hit. Calls of active or inactive are those of the source. Rule for the calls: active = growth percent below 10; inactive = the rest.
Labels: true (1) = active, false (0) = inactive

Compound	Class name
Clc1ccc(/C=C2\CCCC3=C2N=C2SC=NN2C3c2ccc(Cl)cc2)cc1 (stereo not drawn)	false (0)
COc1ccc(N2C(=O)C3c4[nH]c5ccc(OCc6ccccc6)cc5c4C4CCC(C(C)C)CC4C3C2=O)cc1 (stereo not drawn)	false (0)
Nc1c(C(=O)Nc2cccc3ccccc23)sc2nc3c(cc12)C(=O)CCC3	false (0)
COc1cc(Nc2ccnc(NCCCNc3ccnc4cc(Cl)ccc34)n2)cc(OC)c1	false (0)
COC(=O)c1c(-c2ccccc2)csc1NC(=O)c1c(-c2ccccc2)noc1C	true (1)
CCCCCCCCCCCCCCCC(=O)OC1[C@@H](OC(=O)CCCCCCCCCCCCCCC)[C@@H](C(=O)N[C@@H](CCCCN)C(=O)OC)O[C@H]1n1cnc2c(=O)[nH]c(NC(=O)C(C)C)nc21 (stereo partly drawn)	false (0)
c1ccc(CO[C@H]2CO[C@H]3[C@@H]2OC[C@H]3OCc2ccccc2)cc1	false (0)
Cc1ccc2oc3nc(C)c(C(=O)NCc4ccccc4)cc3c(=O)c2c1	false (0)
COc1cc(-c2cc(C(=O)N3CCN(C(=O)c4ccccc4NCc4cccs4)CC3)nc3cc(-c4ccccc4)nn23)cc(OC)c1OC	false (0)
Nc1c(C(=O)Nc2ccccc2)sc2nc3c(cc12)CCCC3	false (0)
COc1cc(-c2nc(Nc3nc4ccccc4s3)[nH]c(=O)c2C#N)cc(OC)c1O	false (0)
CCCC1(CC(=O)O)OCCc2c1[nH]c1ccccc21 (stereo not drawn)	false (0)
Cc1cs/c(=N\NC(=O)c2cc(-c3cc4ccccc4o3)nn2-c2ccccc2)n1-c1ccccc1	false (0)
COc1ccc(C(=O)/C=C/c2cc(-c3cc(OC)c(OC)c(OC)c3)n[nH]2)cc1	false (0)
CCC(=O)N1C/C(=C/c2ccc(Cl)cc2)C(=O)/C(=C/c2ccc(Cl)cc2)C1	true (1)
O=C(C[n+]1ccccc1)c1ccc2ccccc2c1	false (0)
CCCCCCN1C(=O)C2=C(c3ccc(Cl)cc3)Nc3c(c(C)nn3-c3ccccc3)C2c2ccccc21 (stereo not drawn)	false (0)
COc1cc(-c2cc(-c3cc4c([nH]c5ccccc54)c(-c4cc(OC)c(OC)c(OC)c4)n3)cc(-c3ccccc3)n2)cc(OC)c1OC	false (0)

Measured values drawn from PubChem BioAssay (NCI) for this set.
